- assay-procedure: chemical genetic growth profiling, strain panel (AID 1159580);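 also: tested at 20 µM; growth read once vehicle control cultures reached saturation at 30 °C; 1 = growth at the plate median or of vehicle wells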
- test-parameters: S. cerevisiae deletion strains, growth OD, locus YDL074C, strain BRE1
The whole screen tested about 5,500 compounds, of which about 2,000 (36%) were called active. Inconclusive results (about 18%) are left out. Rule as the data show it: active = normalized growth mostly below about 0.91 (no sharp cut-off); inconclusive = no clear call, values can overlap the other calls; inactive = mostly above about 0.92. The list shows a part of the results.
# valid calls are active, inactive; nothing else

>>> class("COc1ccc2cc(CCC(C)=O)ccc2c1")
"inactive"
>>> class("CC(=O)N[C@@H](Cc1c[nH]c2ccccc12)C(N)=O")
"inactive"
>>> class("CN(C)c1ccc(O)c2c1C[C@H]1C[C@H]3[C@H](N(C)C)C(=O)C(C(N)=O)=C(O)[C@@]3(O)C(=O)C1=C2O")
"inactive"
>>> class("CC(=O)O[C@@H]1CC[C@@]2(C)C(C[C@@H](OC(C)=O)[C@@]3(C)C4=CC(=O)O[C@@H](c5ccoc5)[C@]4(C)CCC23)C1(C)C (some centres not stated)")
"inactive"
>>> class("N[C@@H](CCC(=O)N[C@@H](CS)C(=O)NCC(=O)O)C(=O)O")
"inactive"
>>> class("C=C1C[C@]23C[C@@]1(O)CC[C@H]2[C@@]12C=C[C@H](O)[C@@](C)(C(=O)O1)[C@H]2[C@@H]3C(=O)O")
"inactive"
>>> class("CCCOc1ccc2nc(NC(=O)OC)[nH]c2c1")
"inactive"
>>> class("CN(C)CCCN1c2ccccc2Sc2ccc(Cl)cc21")
"inactive"

Please look at the following compound next.
Q: Hi, do you know how CCC(C)[C@H]1O[C@]2(C=C[C@@H]1C)C[C@@H]1C[C@@H](C/C=C(\C)[C@@H](OC3C[C@H](OC)C(O[C@H]4C[C@H](OC)[C@@H](O)[C@H](C)O4)[C@H](C)O3)[C@@H](C)/C=C/C=C3\CO[C@@H]4[C@H](O)C(C)=C[C@@H](C(=O)O1)[C@]34O)O2 (some centres not stated) came out in this test?
A: active

----------
- assay-procedure: chemical genetic growth profiling, strain panel (AID 1159580);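 also: tested at 20 µM; growth read once vehicle control cultures reached saturation at 30 °C; 1 = growth at the plate median or of vehicle wells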
- test-parameters: S. cerevisiae deletion strains, growth OD, locus YOR080W, strain dia2, active compounds read low
Screen size: about 5,500 compounds; about 2,000 (36%) were called active. Roughly 18% stayed inconclusive and do not appear here. The list shows a part of the results.
measurement-label: normalized growth

Recorded results for 5 compounds are shown here.
>>> measurement("CC1=CCCC2C1(C)CCC(C)C2(C)CC/C(C)=C/C[n+]1cn(C)c2c(N)ncnc21 (stereo unspecified)")
"1 (inactive)"
>>> measurement("O=P1(NCCCl)OCCCN1CCCl (stereo unspecified)")
"0.987 (inactive)"
>>> measurement("CC(C)C[C@@H](CN)CC(=O)O")
"1.03 (inactive)"
>>> measurement("CC(C)=CC1C(C(=O)O)C1(C)C (stereo unspecified)")
"0.965 (inactive)"
>>> measurement("CC(=O)N[C@@H](Cc1c[nH]c2ccccc12)C(N)=O")
"1.03 (inactive)"

Next:
Q: Name the recorded normalized growth of the compound listed here: CC(Cc1cccc(C(F)(F)F)c1)NCCOC(=O)c1ccccc1 (stereo unspecified)
A: 0.971 (inactive)

----------
- assay-procedure: chemical genetic growth profiling, strain panel (AID 1159580);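 also: tested at 20 µM; growth read once vehicle control cultures reached saturation at 30 °C; 1 = growth at the plate median or of vehicle wells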
- test-parameters: S. cerevisiae deletion strains, growth OD, locus YJL154C, strain vps35, active compounds read low
Out of some 5,500 compounds screened, about 2,000 (36%) were called active. Another 18% or so got no clear call; they are omitted. The list shows a part of the results.
Sorting guide: entries reporting normalized growth beneath 1 go in the satisfied pile, the rest go in the not satisfied pile.

>>> class("O=C(OCc1ccccc1)c1ccccc1")
"satisfied"
>>> class("C=C1c2cccc(O)c2C(O)=C2C(=O)[C@]3(O)C(O)=C(C(N)=O)C(=O)[C@@H](N(C)C)[C@@H]3[C@@H](O)[C@H]12")
"not satisfied"
>>> class("CS(=O)(=O)c1ccc([C@@H](O)[C@@H](CO)NC(=O)C(Cl)Cl)cc1")
"not satisfied"
>>> class("CC(C)=CC1C(C(=O)O)C1(C)C (stereo not given)")
"satisfied"
>>> class("Nc1ccc(C(=O)O)cc1")
"not satisfied"
>>> class("CC(=O)Nc1ccc(S(=O)(=O)Nc2onc(C)c2C)cc1")
"satisfied"
>>> class("CC(=O)c1ccc(O)c(CC=C(C)C)c1")
"satisfied"
>>> class("CN(C)[C@@H]1C(=O)C(C(N)=O)=C(O)[C@@]2(O)C(=O)C3=C(O)c4c(O)cccc4[C@@](C)(O)[C@H]3[C@H](O)[C@@H]12")
"not satisfied"
>>> class("CC(=O)OCC(=O)[C@@]1(O)[C@H](C)CC2C3CCC4=CC(=O)C=C[C@]4(C)[C@@]3(F)[C@@H](O)C[C@@]21C (stereo not given in full)")
"satisfied"
>>> class("O=C(CC(=O)c1ccccc1)c1ccccc1")
"satisfied"

Q: Is the reported normalized growth for "Cc1scc2c1N(C(=O)CN1CCN(C)CC1)c1ccccc1NC2=O" strictly below 1?
A: satisfied

Q: Is it true that normalized growth reported for CC(=O)O[C@H]1CCC2(C)C3=C(CCC2C1(C)C)[C@@]1(C)CC[C@@H](C(C)CCC=C(C)C)[C@]1(C)CC3 (stereo not given in full) is less than 1?
A: not satisfied

Q: Lab log: compare recorded normalized growth with 1; is it strictly lower for "COc1cc(C/C=C/c2ccccc2)c(OC)cc1O" ?
A: satisfied

Q: In plain terms, does CC1(C)CC2C1CC[C@]1(C)CCC3C(C(=O)O)CC(=O)O[C@@]32C1 (stereo not given in full) come in under 1 for normalized growth?
A: not satisfied

Q: Is normalized growth strictly under 1 for the entry CC(C)=CCCC(C)[C@@H]1CC[C@]2(C)C3=C(CC[C@@]12C)C1(C)CC[C@H](O)C(C)(C)C1CC3 (stereo not given in full) ?
A: not satisfied
